Assay: serotonin-gated TRPC4 signal block – cell-based, second counter screen, HEK293 TRPC4/5HT1a, Fluo-4, counter-screen for TRPC4 inhibitor project, confirmation (AID 434978)
Settings: Fluo-4 calcium flux, at 10 µM, serotonin added to trigger calcium flux; hits give high values
Activity calls are given as the source filed them.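 Rule for the calls: active = primary screen active whose calcium signal fell more than 3 SD beyond the full-serotonin control mean in both duplicate plates; inactive = the rest.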

compound: Cc1cc(OCc2cc(C(=O)NCC3(C)COC3)no2)cc(C)c1Cl
inhibition: 40.6% (active)
//
compound: COc1cc(CNC2CCCCCCC2)cc(Br)c1OCC#N
inhibition: inactive
//
compound: COc1ccccc1/C=C/CN1CCCC(CCC(=O)NCc2ccc(F)c(F)c2)C1 (stereo unspecified)
inhibition: inactive
//
compound: COc1ccc(CCn2c(=S)[nH]c3cc(C(=O)N4CCOCC4)ccc3c2=O)cc1OC
inhibition: inactive
//
compound: COC(=O)NCC(c1ccc2c(c1)OCO2)N1CCN(c2ccccc2)CC1 (stereo unspecified)
inhibition: inactive
//
compound: COc1ccc2c(c1)sc(N)[n+]2Cc1cc(C)cc2cccnc12
inhibition: 28.6% (active)
//
compound: CN1CCN(Cc2cn[nH]c2-c2ccc(F)cc2F)[C@@H](c2ccccc2)C1
inhibition: inactive
//
compound: CCN1C2=NCCCN2c2cc(C)c(C)cc21
inhibition: inactive
//
compound: COCCn1nnnc1C(c1cc2ccc(OC)cc2[nH]c1=O)N1CCN(C2CCCCC2)CC1 (stereo unspecified)
inhibition: inactive
//
compound: CCOc1ccc(Cl)cc1/C=N/O
inhibition: 39.8% (active)
//
compound: Cc1oc(-c2cccc(F)c2)nc1CN(Cc1ccccc1)C[C@@H]1CCC(=O)N1
inhibition: inactive
//
compound: CCn1c(N2CCN(S(=O)(=O)CC)CC2)nc2ccccc21
inhibition: inactive
//
compound: O=C1CCSc2ccc(Cl)cc2N1Cc1ccc(Cl)cc1
inhibition: inactive
//
compound: CC1=NN(C(=O)COc2ccc(C)c(C)c2)C(O)(c2ccc(Cl)cc2)C1 (stereo unspecified)
inhibition: inactive
//
compound: CCOC(=O)c1c(C(F)(F)C(F)(F)C(F)(F)C(F)(F)F)n[nH]c1C
inhibition: inactive
//
compound: COCCCn1c(N)c(-c2nc3ccccc3n2C)c2nc3ccccc3nc21
inhibition: inactive

Ref: PubChem BioAssay
